Subject of test: Human Fc (human)
Protocol text: ELISA; negative control
Measured metric: optical density (OD)
Report only the number, with the unit OD understood.

Identify the reported optical density for the following entry. 366_F04 (antibody, V domains shown) VH: EVQLLESGGGLVQPGGSLRLSCAASGFTFSDYGMNWVRQAPGKGLEWVSGINYNGGYTSYADSVKGRFTISRDNSKNTLYLQMNSLRAEDTAVYYCARSANWHDTALDYWGQGTLVTVSS VL: DIQMTQSPSSLSASVGDRVTITCRASQSILSYVNWYQQKPGKAPKLVIYATTSRHSGVPSRFSGSGSGTDFTLTISSLQPEDFATYYCQQSYESPLTFGGGTKVEIK
0.281

Identify the reported optical density for the following entry. 366_D04 (antibody, V domains shown) VH: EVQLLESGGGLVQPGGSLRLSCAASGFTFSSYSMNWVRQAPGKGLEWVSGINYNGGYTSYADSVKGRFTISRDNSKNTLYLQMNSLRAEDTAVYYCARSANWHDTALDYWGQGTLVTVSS VL: DIQMTQSPSSLSASVGDRVTITCRASQSISSYVNWYQQKPGKAPKLLIYATTSRASGVPSRFSGSGSGTDFTLTISSLQPEDFATYYCQQSYETPLTFGGGTKVEIK
0.338

Identify the reported optical density for the following entry. 371_G01 (antibody, V domains shown) VH: EVQLLESGGGLVQPGGSLRLSCAASGFTFSDYSMNWVRQAPGKGLEWVSNINYNGGYTSYADSVKGRFTISRDNSKNTLYLQMNSLRAEDTAVYYCARGATWHDTHLDYWGQGTLVTVSS VL: DIQMTQSPSSLSASVGDRVTITCRASQSILTYLNWYQQKPGKAPKLLIYAATSLASGVPSRFSGSGSGTDFTLTISSLQPEDFATYYCQQSYDLPLTFGGGTKVEIK
0.375

Identify the reported optical density for the following entry. 370_D09 (antibody, V domains shown) VH: EVQLLESGGGLVQPGGSLRLSCAASGFTFSDYSMNWVRQAPGKGLEWVSGINYNSGYTSYADSVKGRFTISRDNSKNTLYLQMNSLRAEDTAVYYCARGATWHDTHLDYWGQGTLVTVSS VL: DIQMTQSPSSLSASVGDRVTITCRASQSIVTYLNWYQQKPGKAPKLVIYAATSRASGVPSRFSGSGSGTDFTLTISSLQPEDFATYYCQQSYDTPLTFGGGTKVEIK
0.287

Identify the reported optical density for the following entry. 369_A11 (antibody, V domains shown) VH: EVQLLESGGGLVQPGGSLRLSCAASGFTFDSYGMNWVRQAPGKGLEWVANINYNGGYKGYADSVKGRFTISRDNSKNTLYLQMNSLRAEDTAVYYCARGATWHDTHLDYWGQGTLVTVSS VL: DIQMTQSPSSLSASVGDRVTITCRASQSIITYLNWYQQKPGKAPKLVIYAATSRHSGVPSRFSGSGSGTDFTLTISSLQPEDFATYYCQQSYESPLTFGGGTKVEIK
0.366

Where these numbers come from: patent US20210380703A1
